# test system: Nuclear receptor ROR-alpha (Homo sapiens)
# protocol description: ROR alpha selectivity assay for inhibitors of ROR gamma transcriptional activity
# condition info: Drosophila S2 Gal4-RORalpha UAS-luciferase, 20 h; series mostly up to 92.2 µM
Inconclusive results are not listed. Calls of active or inactive are those of the source. Calls come from the whole dose curve; as a rule, active = well fitted inhibition curve with a large enough effect; inconclusive = small, poorly fitted or top-dose-only effect, or effect the other way; inactive = no such curve, though single readings can be large or run the other way.
Respond with a class label; see class 1 = active, class 0 = inactive

| compound | group label |
| --- | --- |
| COc1cc(O)c(C(CC(=O)N2CCCC(C)(C)C2)c2ccc3c(c2)OCO3)c(OC)c1 (stereo not given) | class 0 |

Query string: Which outcome did this test record for the compound COc1cc(O)c(C(CC(=O)N2CCCCC2C)c2ccc3c(c2)OCO3)c(OC)c1 (stereo not given) ?
Result string: class 0

Query string: State the result this test recorded for COc1cc(O)c(C(CC(=O)N2CCCC(C)C2)c2ccc(C(C)C)cc2)c(OC)c1 (stereo not given) .
Result string: class 1

Query string: Hi, sorry to bother you, what did the test record for COc1cc(O)c(C(CC(=O)NC2CCCc3ccccc32)c2ccc3c(c2)OCO3)c(OC)c1 (stereo not given) ?
Result string: class 0

Query string: Lab log entry: CCOC(=O)C1CCN(CC(=O)Nc2cc(C)nn2-c2nc3ccccc3s2)CC1 — outcome as called in the assay?
Result string: class 1

Query string: Tell me the recorded outcome of this test for COc1cc(O)c(C(CC(=O)Nc2cccc3ccccc23)c2ccc3c(c2)OCO3)c(OC)c1 (stereo not given) .
Result string: class 0

----------
# test system: Nuclear receptor ROR-alpha (Homo sapiens) (UniProt P35398)
# protocol description: ROR alpha selectivity assay for inhibitors of ROR gamma transcriptional activity
# condition info: Drosophila S2 Gal4-RORalpha UAS-luciferase, 20 h; series mostly up to 92.2 µM
Results filed as inconclusive are left out. The source made the active and inactive calls. Calls come from the whole dose curve; as a rule, active = well fitted inhibition curve with a large enough effect; inconclusive = small, poorly fitted or top-dose-only effect, or effect the other way; inactive = no such curve, though single readings can be large or run the other way.
Your answer must be one of the following: active, inactive

Solved entries (count: 2):
| compound | test system | group label |
| --- | --- | --- |
| Cc1ccc(C)c(/C=N/n2cc(-c3ccccc3)[nH]c2=S)c1 | Nuclear receptor ROR-alpha (Homo sapiens) (UniProt P35398) | active |
| COc1cc(O)c(C(CC(=O)N2CCCC(C)C2)c2ccccc2)c(OC)c1 (stereo not given) | Nuclear receptor ROR-alpha (Homo sapiens) (UniProt P35398) | inactive |

Query string: Please let me know the test result on file for CCNC(=O)CCc1nc(-c2ccc(C(C)(C)C)cc2)no1 .
Result string: active

Query string: How did this test come out for CC1CCCN(C(=O)CC(c2ccccc2)c2ccccc2O)C1 (stereo not given) ?
Result string: inactive

Query string: Could you check what this test reported for COC(=O)Cn1c(CN2CCc3ccccc3C2)nc2c1c(=O)n(C)c(=O)n2C ?
Result string: active

Query string: Please let me know the test result on file for COc1ccc(CNC(=O)[C@H](Cc2ccccc2)NC(=O)C2CCN(C(=O)[C@@H]3CCCN3C(=O)OC(C)(C)C)CC2)cc1 .
Result string: inactive

Query string: What was the test verdict on COc1cc(O)c(C(CC(=O)N2CC(C)NC(C)C2)c2ccc3c(c2)OCO3)c(OC)c1 (stereo not given) ?
Result string: inactive

Query string: Answer briefly: the call reported for COc1cc(O)c(C(CC(=O)N2CCCC2)c2ccc3c(c2)OCO3)c(OC)c1 (stereo not given) in this assay.
Result string: inactive

Query string: Name the outcome recorded for CC(C)(C)c1ccc(-c2noc(CCC(=O)Nc3cccnc3)n2)cc1 in the assay.
Result string: active

Query string: State the result this test recorded for COc1cc(O)c(C(CC(=O)NC2CCC(C)CC2)c2ccc3c(c2)OCO3)c(OC)c1 (stereo not given) .
Result string: inactive

----------
# test system: Nuclear receptor ROR-alpha (Homo sapiens)
# protocol description: ROR alpha selectivity assay for inhibitors of ROR gamma transcriptional activity
# condition info: Drosophila S2 Gal4-RORalpha UAS-luciferase, 20 h; series mostly up to 92.2 µM
Results filed as inconclusive are left out. Calls of active or inactive are those of the source. The call rests on the fitted dose curve; in most records, active means well fitted inhibition curve with a large enough effect; inconclusive means small, poorly fitted or top-dose-only effect, or effect the other way; inactive means no such curve, though single readings can be large or run the other way.
Form entry, call: pick from active, inactive

| compound | test system | group label |
| --- | --- | --- |
| CC(C)(C)c1ccc(S(=O)(=O)Nc2ccc(C(O)(C(F)(F)F)C(F)(F)F)cc2)cc1 | Nuclear receptor ROR-alpha (Homo sapiens) | active |
| Cc1cc(C)c2sc(NC(=O)c3ccc(N4C(=O)CCC4=O)cc3)nc2c1 | Nuclear receptor ROR-alpha (Homo sapiens) | active |
| COc1ccc(-c2c[n+]3c(n2-c2ccc(C)cc2)CCCCC3)cc1 | Nuclear receptor ROR-alpha (Homo sapiens) | active |
| CC1CCCN(C(=O)CC(c2ccc3c(c2)OCO3)c2cc(C(C)C)ccc2O)C1 (stereo unspecified) | Nuclear receptor ROR-alpha (Homo sapiens) | inactive |
| COc1ccccc1C(CC(=O)N1C[C@H](C)C[C@H](C)C1)c1ccccc1 (stereo partly specified) | Nuclear receptor ROR-alpha (Homo sapiens) | active |

Read the next record carefully.
Query string: Could you kindly confirm the outcome this assay logged for COc1cc(O)c(C(CC(=O)N2CCCC(C)C2)c2ccc3ccccc3c2)c(OC)c1 (stereo unspecified) ?
Result string: inactive

----------
# test system: Nuclear receptor ROR-alpha (Homo sapiens)
# protocol description: ROR alpha selectivity assay for inhibitors of ROR gamma transcriptional activity
# condition info: Drosophila S2 Gal4-RORalpha UAS-luciferase, 20 h; series mostly up to 92.2 µM
Inconclusive results are not listed. Activity calls are given as the source filed them. The call rests on the fitted dose curve; in most records, active means well fitted inhibition curve with a large enough effect; inconclusive means small, poorly fitted or top-dose-only effect, or effect the other way; inactive means no such curve, though single readings can be large or run the other way.
Could you please pick one outcome from this set? active, inactive

| molecule | group label |
| --- | --- |
| COC(=O)c1ccc(OCC(=O)c2ccc(O)cc2O)cc1 | active |
| COc1cc(O)c(C(CC(=O)N2CCC(c3ccccc3)CC2)c2ccc3c(c2)OCO3)c(OC)c1 (centres undefined) | inactive |
| Cc1nn(-c2cc(C)c3ccccc3n2)c2c1C1C(C2)C1(C)C (centres undefined) | active |
| COc1cc(O)c(C(CC(=O)N2CCC(C)CC2)c2ccc3c(c2)OCO3)c(OC)c1 (centres undefined) | inactive |

Query string: // outcome(item) with item = COc1cc(OC)c(C(CC(=O)N2CCCC(C)C2)c2ccc3c(c2)OCO3)c(OCc2ccccc2)c1 (centres undefined)
Result string: active

Query string: I would be grateful if you could indicate the recorded call for COCC1CCCN(C(=O)CC(c2ccc3c(c2)OCO3)c2c(O)cc(OC)cc2OC)C1 (centres undefined) .
Result string: inactive

Query string: Any idea what this test logged for COc1cc(O)c(C(CC(=O)N2CCCC(CN3CCCCC3)C2)c2ccc3c(c2)OCO3)c(OC)c1 (centres undefined) ?
Result string: inactive

Query string: # fetch the recorded call for COc1cc(OC)c(C(c2ccccc2)C(C)(C)C(=O)N2CC(C)CC(C)C2)c(OC)c1 (centres undefined) here
Result string: active

Query string: Tell me the recorded outcome of this test for O=C(CCCN1C(=O)/C(=C/c2ccccc2Cl)SC1=S)Nc1cccnc1 .
Result string: active

----------
# test system: Nuclear receptor ROR-alpha (Homo sapiens) (UniProt P35398)
# protocol description: ROR alpha selectivity assay for inhibitors of ROR gamma transcriptional activity
# condition info: Drosophila S2 Gal4-RORalpha UAS-luciferase, 20 h; series mostly up to 92.2 µM
Records with an inconclusive call do not appear. The source made the active and inactive calls. The call rests on the fitted dose curve; in most records, active means well fitted inhibition curve with a large enough effect; inconclusive means small, poorly fitted or top-dose-only effect, or effect the other way; inactive means no such curve, though single readings can be large or run the other way.

| compound | Potency |
| --- | --- |
| CCn1cc(C(=O)O)c(=O)c2cnc(N3CCN(C(=S)NC(=O)c4ccccc4)CC3)nc21 | 22.9 µM (active) |
| COc1cc(C)nc(-n2nc(C)cc2OC)n1 | 8.12 µM (active) |
| COc1ccc(C(CC(=O)N2CCCC(C)C2)c2c(O)cc(OC)cc2OC)cc1 (centres undefined) | inactive |
| COc1ccc(C(CC(=O)N2CCCC(C)C2)c2ccccc2)cc1 (centres undefined) | inactive |
